- Organism: Rattus norvegicus
- assay.info: Chloride ion influx in rat cerebrocortical membranes
- Type: functional
assay.endpoint: Chlorine uptake
No unit in the answer, only the number.

[ask] Entry O=C(c1ccccc1Cl)N1Cc2c(-c3noc(C4CC4)n3)ncn2-c2ccccc21 has what Chlorine uptake?
[reply] 0.28

[ask] Now give it for CC(C)(C)OC(=O)c1ncn2c1CN(C(=O)c1ccccc1Cl)c1ccccc1-2 too.
[reply] -0.15

[ask] Now give it for O=C1CCC2c3c(-c4noc(C5CC5)n4)ncn3-c3ccccc3N12 (stereo not given) too.
[reply] 0.29

[ask] Now give it for O=C(c1ccccc1)N1Cc2c(-c3noc(C4CC4)n3)ncn2-c2cccc(F)c21 too.
[reply] 0.9

[ask] Now give it for CC(=O)N1Cc2c(C(=O)OC(C)(C)C)ncn2-c2ccccc21 too.
[reply] 0

----------
- test.target: GABA A receptor alpha-6/beta-2/gamma-2 (Homo sapiens, UniProt P18507+P47870+Q16445)
- Sequence (P47870 whole entry): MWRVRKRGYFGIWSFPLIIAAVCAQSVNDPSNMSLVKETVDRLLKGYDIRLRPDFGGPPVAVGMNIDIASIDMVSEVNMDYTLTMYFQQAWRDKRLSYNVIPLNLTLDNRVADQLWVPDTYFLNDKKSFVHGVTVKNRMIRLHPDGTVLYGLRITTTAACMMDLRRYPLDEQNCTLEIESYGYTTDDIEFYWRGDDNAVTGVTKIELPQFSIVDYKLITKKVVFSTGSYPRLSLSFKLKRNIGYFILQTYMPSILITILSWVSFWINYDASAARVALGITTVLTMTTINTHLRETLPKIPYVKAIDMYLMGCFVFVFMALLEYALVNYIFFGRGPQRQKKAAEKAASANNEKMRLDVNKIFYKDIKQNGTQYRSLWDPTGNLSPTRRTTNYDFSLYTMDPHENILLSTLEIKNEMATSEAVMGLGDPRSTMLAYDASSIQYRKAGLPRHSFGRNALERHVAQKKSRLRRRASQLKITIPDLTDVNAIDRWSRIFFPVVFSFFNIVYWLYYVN
- Sequence (P18507 whole entry): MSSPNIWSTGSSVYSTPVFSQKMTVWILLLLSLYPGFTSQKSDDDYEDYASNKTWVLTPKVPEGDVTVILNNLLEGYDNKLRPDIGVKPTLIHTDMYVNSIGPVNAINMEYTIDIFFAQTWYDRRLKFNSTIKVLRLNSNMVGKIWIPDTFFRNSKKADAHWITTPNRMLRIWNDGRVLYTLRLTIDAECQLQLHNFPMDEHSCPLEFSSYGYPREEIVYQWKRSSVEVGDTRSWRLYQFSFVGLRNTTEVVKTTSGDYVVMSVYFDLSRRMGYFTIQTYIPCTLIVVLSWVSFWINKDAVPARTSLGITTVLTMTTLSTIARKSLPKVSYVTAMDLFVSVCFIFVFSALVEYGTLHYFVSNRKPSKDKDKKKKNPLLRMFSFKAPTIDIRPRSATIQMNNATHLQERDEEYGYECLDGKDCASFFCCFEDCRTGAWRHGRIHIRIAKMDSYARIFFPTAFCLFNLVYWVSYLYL
- Sequence (Q16445 whole entry): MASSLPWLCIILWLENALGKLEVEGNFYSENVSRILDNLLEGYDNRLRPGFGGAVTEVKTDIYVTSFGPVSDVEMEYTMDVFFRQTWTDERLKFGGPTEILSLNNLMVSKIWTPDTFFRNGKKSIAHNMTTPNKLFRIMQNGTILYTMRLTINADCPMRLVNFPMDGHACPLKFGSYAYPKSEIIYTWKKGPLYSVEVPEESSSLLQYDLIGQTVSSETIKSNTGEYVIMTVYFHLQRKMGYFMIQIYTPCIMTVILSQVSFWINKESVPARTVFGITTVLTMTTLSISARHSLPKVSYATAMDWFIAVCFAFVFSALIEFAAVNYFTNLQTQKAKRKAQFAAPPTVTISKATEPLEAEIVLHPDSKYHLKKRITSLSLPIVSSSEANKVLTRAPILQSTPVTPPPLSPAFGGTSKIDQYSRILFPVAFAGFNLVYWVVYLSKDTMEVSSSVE
- assay.info: Displacement of [3H]-Ro- 15-4513 from alpha-6-beta-2-gamma-2 GABA-A receptor subunits expressed in Sf9 cell membranes
assay.endpoint: pKi
// field semantics: pKi = negative decimal log of concentration (mol/L)

[ask] Entry CCOC(=O)c1ncn2c1CN(C)C(=O)c1cc(N=[N+]=[N-])ccc1-2 has what pKi?
[reply] 8.27

----------
- assay.info: Displacement of [3H]flunitrazepam from alpha-1-beta-2-gamma-2 GABA-A receptor subunits expressed in Sf9 cell membranes
- Design: species or system Rattus norvegicus
Provide the recorded Ki for the entries that follow.
Numeric only. Scale: nM

[ask] Entry CC(C)(C)OC(=O)c1ncn2c1C1CCC(=O)N1c1ccccc1-2 (stereo not given) has what Ki?
[reply] 0.4

[ask] Now give it for O=C(c1ccccc1)N1Cc2c(-c3noc(C4CC4)n3)ncn2-c2ccc(F)cc21 too.
[reply] 0.4

[ask] Now give it for CC(=O)N1Cc2c(-c3noc(C4CC4)n3)ncn2-c2ccccc21 too.
[reply] 2.7

[ask] Now give it for CCOC(=O)c1ncn2c1CN(C)C(=O)c1cc(N=[N+]=[N-])ccc1-2 too.
[reply] 15

[ask] Now give it for O=C(c1ccccc1)N1Cc2c(-c3noc(C4CC4)n3)ncn2-c2ccccc21 too.
[reply] 0.3

----------
- test.target: GABA-A receptor; anion channel (Rattus norvegicus) (UniProt O09028+P15431+P18506+P18508+P19969+P20236+P23574+P23576+P28471+P28473+P30191+P62813+P63079+P63138+Q91ZM7+Q9ES14)
- assay.info: Shift in the affinity of [35S]TBPS for the chloride channel of GABAA receptor complex in the presence and absence of compound
- Format: protein-complex assay
assay.endpoint: TBPS shift
No unit in the answer, only the number.

[ask] Entry O=C(c1ccccc1Cl)N1Cc2c(-c3noc(C4CC4)n3)ncn2-c2ccccc21 has what TBPS shift?
[reply] 0

[ask] Now give it for O=C1OCC2c3c(-c4noc(C5CC5)n4)ncn3-c3ccccc3N12 (stereo not given) too.
[reply] 0.96

[ask] Now give it for O=C1CCC2c3c(-c4noc(C5CC5)n4)ncn3-c3ccccc3N12 (stereo not given) too.
[reply] 1.15

[ask] Now give it for CC(=O)N1Cc2c(-c3nc(C4CC4)no3)ncn2-c2ccccc21 too.
[reply] 0.7

[ask] Now give it for CC(C)OC(=O)N1c2ccccc2-n2cnc(-c3noc(C4CC4)n3)c2C1(C)C too.
[reply] 1.2

[ask] Now give it for CC(=O)N1Cc2c(-c3noc(C4CC4)n3)ncn2-c2ccccc21 too.
[reply] 0.9

[ask] Now give it for CC(=O)N1Cc2c(C(=O)OC(C)(C)C)ncn2-c2ccccc21 too.
[reply] -0.06

[ask] Now give it for CC(C)(C)OC(=O)c1ncn2c1CN(C(=O)OC(C)(C)C)c1ccccc1-2 too.
[reply] 0.45

[ask] Now give it for O=C1CC[C@H]2c3c(-c4noc(C5CC5)n4)ncn3-c3ccccc3N12 too.
[reply] 1.05

[ask] Now give it for O=C1CC[C@@H]2c3c(-c4noc(C5CC5)n4)ncn3-c3ccccc3N12 too.
[reply] 0.9

Measured values drawn from ChEMBL document CHEMBL1127668 for this set.
